# TEST SYSTEM: HIV-1 Env of isolate MGRM-A-009 (HIV-1)
# TEST DETAILS: cell-based or functional assay
Please respond with reported IC50 (µg/mL), pseudovirus neutralization for every item in the list.
Express the result in µg/mL but write the number alone.

Just so you know, measured IC50 (µg/mL), pseudovirus neutralization for PGT-127 (antibody, V domains shown) VH: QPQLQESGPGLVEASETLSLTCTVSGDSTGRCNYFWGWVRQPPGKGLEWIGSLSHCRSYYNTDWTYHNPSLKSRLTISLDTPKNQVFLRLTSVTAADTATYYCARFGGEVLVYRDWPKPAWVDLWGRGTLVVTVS VL: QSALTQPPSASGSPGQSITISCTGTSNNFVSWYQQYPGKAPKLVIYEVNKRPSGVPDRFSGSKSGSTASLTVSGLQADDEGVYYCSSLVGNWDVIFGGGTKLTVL came out at 0.013

// field: IC50 (µg/mL), pseudovirus neutralization; key: PGT-126 (antibody, V domains shown) VH: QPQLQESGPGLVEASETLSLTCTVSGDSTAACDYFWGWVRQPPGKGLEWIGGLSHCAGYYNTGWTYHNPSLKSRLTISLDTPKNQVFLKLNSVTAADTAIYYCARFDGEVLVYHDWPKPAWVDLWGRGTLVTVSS VL: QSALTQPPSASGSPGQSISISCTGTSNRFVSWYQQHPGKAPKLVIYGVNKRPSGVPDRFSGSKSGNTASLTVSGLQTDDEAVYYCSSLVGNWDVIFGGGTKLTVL ; value = 0.004

Measured IC50 (µg/mL), pseudovirus neutralization, PGT-125 (antibody, V domains shown) VH: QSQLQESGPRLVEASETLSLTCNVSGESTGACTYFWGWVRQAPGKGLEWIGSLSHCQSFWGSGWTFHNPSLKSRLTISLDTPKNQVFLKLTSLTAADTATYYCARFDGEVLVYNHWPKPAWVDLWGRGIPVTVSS VL: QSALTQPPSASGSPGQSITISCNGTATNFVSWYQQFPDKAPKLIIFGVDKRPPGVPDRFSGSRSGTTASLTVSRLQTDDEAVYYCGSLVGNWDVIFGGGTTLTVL : 0.009

IC50 (µg/mL), pseudovirus neutralization measured on PGT-123 (antibody, V domains shown) VH: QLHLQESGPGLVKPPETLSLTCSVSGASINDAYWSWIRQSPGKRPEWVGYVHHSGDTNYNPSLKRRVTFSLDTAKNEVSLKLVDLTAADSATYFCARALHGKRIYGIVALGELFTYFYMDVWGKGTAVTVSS VL: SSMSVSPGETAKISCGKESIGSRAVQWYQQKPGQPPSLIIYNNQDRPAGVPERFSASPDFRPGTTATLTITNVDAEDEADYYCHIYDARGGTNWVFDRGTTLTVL = 0.004

Origin of measurements: patent US20200024330A1
